assay: Gelation studies with Apn-based prodrug gelators in water and organic solvents; type: physicochemical; parameters: key: G = gel; P = precipitate; S = soluble; I = insoluble; conditions: solvent ethyl acetate
ENDPOINT: Gelation ability

Here is how some compounds turned out for Gelation ability.
>  <COMPOUND>
CC(=O)Nc1ccc(OC(=O)CCCCCCCCCCCCC(=O)Oc2ccc(NC(C)=O)cc2)cc1 [Apn-14-Apn]

>  <Gelation ability>
I

$$$$
>  <COMPOUND>
CC(=O)Nc1ccc(OC(=O)CCCCCCC(=O)O)cc1 [Apn-7-COOH]

>  <Gelation ability>
I

$$$$
>  <COMPOUND>
CCCCCCCCCCCC(=O)Oc1ccc(NC(C)=O)cc1 [Apn-11-CH3]

>  <Gelation ability>
P

$$$$
>  <COMPOUND>
CC(=O)Nc1ccc(OC(=O)CCCCCCC(=O)Oc2ccc(NC(C)=O)cc2)cc1 [Apn-8-Apn]

>  <Gelation ability>
I

$$$$

Now for the compound whose Gelation ability we want.
Which Gelation ability reading was recorded for the compound CC(=O)Nc1ccc(OC(=O)CCCCCCCCCCCCC(=O)O)cc1 [Apn-13-COOH] ?
I

----------
experiment: Gelation studies with Apn-based prodrug gelators in water and organic solvents; format: physicochemical; parameters: key: G = gel; P = precipitate; S = soluble; I = insoluble; settings: solvent isopropanol
ENDPOINT: Gelation ability

>  <COMPOUND STRUCTURE>
CCCCCCCCCCCC(=O)Oc1ccc(NC(C)=O)cc1

>  <VALUE MEASURED>
G

$$$$
>  <COMPOUND STRUCTURE>
CC(=O)Nc1ccc(OC(=O)CCCCCCCCCCCCC(=O)Oc2ccc(NC(C)=O)cc2)cc1

>  <VALUE MEASURED>
S

$$$$
>  <COMPOUND STRUCTURE>
CC(=O)Nc1ccc(OC(=O)CCCCCCC(=O)Oc2ccc(NC(C)=O)cc2)cc1

>  <VALUE MEASURED>
S

$$$$
>  <COMPOUND STRUCTURE>
CC(=O)Nc1ccc(OC(=O)CCCCCCC(=O)O)cc1

>  <VALUE MEASURED>
I

$$$$

Need Gelation ability, item CC(=O)Nc1ccc(OC(=O)CCCCCCCCCCCCC(=O)O)cc1
S

----------
assay: Gelation studies with Apn-based prodrug gelators in water and organic solvents; assay type: physicochemical; design: key: G = gel; P = precipitate; S = soluble; I = insoluble; details: solvent water
ENDPOINT: Gelation ability

These recorded examples may help you get a feel for the data.
>  <COMPOUND>
CC(=O)Nc1ccc(OC(=O)CCCCCCC(=O)Oc2ccc(NC(C)=O)cc2)cc1 [Apn-8-Apn]

>  <Gelation ability>
G

$$$$
>  <COMPOUND>
CC(=O)Nc1ccc(OC(=O)CCCCCCCCCCCCC(=O)O)cc1 [Apn-13-COOH]

>  <Gelation ability>
G

$$$$
>  <COMPOUND>
CCCCCCCCCCCC(=O)Oc1ccc(NC(C)=O)cc1 [Apn-11-CH3]

>  <Gelation ability>
I

$$$$
>  <COMPOUND>
CC(=O)Nc1ccc(OC(=O)CCCCCCCCCCCCC(=O)Oc2ccc(NC(C)=O)cc2)cc1 [Apn-14-Apn]

>  <Gelation ability>
G

$$$$

Turning now to a further compound:
# input compound: CC(=O)Nc1ccc(OC(=O)CCCCCCC(=O)O)cc1 [Apn-7-COOH] ; wanted: its Gelation ability
G

----------
assay: Gelation studies with Apn-based prodrug gelators in water and organic solvents; format: physicochemical; set-up: key: G = gel; P = precipitate; S = soluble; I = insoluble; settings: solvent t-butanol
ENDPOINT: Gelation ability

>  <COMPOUND STRUCTURE>
CCCCCCCCCCCC(=O)Oc1ccc(NC(C)=O)cc1

>  <Gelation ability>
G

$$$$
>  <COMPOUND STRUCTURE>
CC(=O)Nc1ccc(OC(=O)CCCCCCCCCCCCC(=O)Oc2ccc(NC(C)=O)cc2)cc1

>  <Gelation ability>
S

$$$$
>  <COMPOUND STRUCTURE>
CC(=O)Nc1ccc(OC(=O)CCCCCCCCCCCCC(=O)O)cc1

>  <Gelation ability>
S

$$$$
>  <COMPOUND STRUCTURE>
CC(=O)Nc1ccc(OC(=O)CCCCCCC(=O)Oc2ccc(NC(C)=O)cc2)cc1

>  <Gelation ability>
S

$$$$

The record that follows has no Gelation ability shown yet.
Which Gelation ability is reported for this compound? CC(=O)Nc1ccc(OC(=O)CCCCCCC(=O)O)cc1
I

----------
assay: Gelation studies with Apn-based prodrug gelators in water and organic solvents; format: physicochemical; conditions: solvent water
ENDPOINT: minimum gelation concentration (wt/v %)
Field format: number, assumed wt/v %, no unit text.

Any idea what its minimum gelation concentration is? The molecule is CC(=O)Nc1ccc(OC(=O)CCCCCCCCCCCCC(=O)O)cc1
0.6

Consider the molecule shown here: CC(=O)Nc1ccc(OC(=O)CCCCCCC(=O)Oc2ccc(NC(C)=O)cc2)cc1 What is its recorded minimum gelation concentration?
1.1

Name the recorded minimum gelation concentration for CC(=O)Nc1ccc(OC(=O)CCCCCCCCCCCCC(=O)Oc2ccc(NC(C)=O)cc2)cc1 .
0.9

So what does the record say about minimum gelation concentration for CC(=O)Nc1ccc(OC(=O)CCCCCCC(=O)O)cc1 ?
0.4

----------
assay: Gelation studies with Apn-based prodrug gelators in water and organic solvents; assay type: physicochemical; parameters: key: G = gel; P = precipitate; S = soluble; I = insoluble; details: solvent ethanol
ENDPOINT: Gelation ability

>  <COMPOUND STRUCTURE>
CC(=O)Nc1ccc(OC(=O)CCCCCCCCCCCCC(=O)O)cc1

>  <ENDPOINT>
Gelation ability

>  <VALUE MEASURED>
S

$$$$
>  <COMPOUND STRUCTURE>
CC(=O)Nc1ccc(OC(=O)CCCCCCCCCCCCC(=O)Oc2ccc(NC(C)=O)cc2)cc1

>  <ENDPOINT>
Gelation ability

>  <VALUE MEASURED>
S

$$$$
>  <COMPOUND STRUCTURE>
CC(=O)Nc1ccc(OC(=O)CCCCCCC(=O)Oc2ccc(NC(C)=O)cc2)cc1

>  <ENDPOINT>
Gelation ability

>  <VALUE MEASURED>
S

$$$$
>  <COMPOUND STRUCTURE>
CCCCCCCCCCCC(=O)Oc1ccc(NC(C)=O)cc1

>  <ENDPOINT>
Gelation ability

>  <VALUE MEASURED>
G

$$$$

As a next step, examine the compound that follows.
Report Gelation ability for CC(=O)Nc1ccc(OC(=O)CCCCCCC(=O)O)cc1 please.
S
